Taken from ChEMBL document CHEMBL3885861.

species on record: Rattus norvegicus; experiment: Open TG-GATES - Regimen: Daily Repeat; assay type: toxicity, organism-based, Sprague-Dawley; design: regimen Daily Repeat, gender Male, age 6 weeks; settings: in vivo, po, 0 mg/kg, 72 h, tissue Plasma, route gavage, dose level Control, time 3 day
ENDPOINT: TP (g/dL)
Answer in g/dL, number only, no unit symbol.

Consider the compound CC1=C(CC(=O)O)c2cc(F)ccc2/C1=C\c1ccc([S+](C)[O-])cc1 (stereo unspecified) and give its measured TP. 5.6

Consider next the compound CCc1oc2ccccc2c1C(=O)c1cc(Br)c(O)c(Br)c1 in the same way. 5.9

And what about the compound OCCOCCN1CCN(C(c2ccccc2)c2ccc(Cl)cc2)CC1 (stereo unspecified) [HYDROXYZINE] ? 5.7

How about this compound: CC[C@H]1[C@@H]2C[C@H]3[C@@H]4N(C)c5ccccc5[C@]45C[C@@H]([C@@H]2[C@H]5O)N3[C@@H]1O 5.8

Okay, and CN(C)CCC=C1c2ccccc2COc2ccccc21 [DOXEPIN] ? 5.7

Moving on to the next compound: O=NN(CCCl)C(=O)NC1CCCCC1 5.9

Next record, please: CC(C)N(CCC(C(N)=O)(c1ccccc1)c1ccccn1)C(C)C (stereo unspecified) [DISOPYRAMIDE] 5.5

What do you have for CN(C)C(=N)N=C(N)N ? 5.5

Would you kindly repeat that for ClC(Cl)(Cl)Cl [CARBON TETRACHLORIDE] ? 5.5

// query: CCCCc1oc2ccccc2c1C(=O)c1cc(I)c(OCCN(CC)CC)c(I)c1 5.8

Please give the result for CCC1(c2ccccc2)C(=O)NC(=O)NC1=O too. 5.9

====

species on record: Rattus norvegicus; assay: Open TG-GATES - Regimen: Daily Repeat; assay type: toxicity, organism-based, Sprague-Dawley; parameters: regimen Daily Repeat, gender Male, age 6 weeks; conditions: in vivo, po, 0 mg/kg, […], tissue Plasma, route gavage, dose level Control, time 7 day
Exercise: state measured PL for each of the molecules provided.
Respond with the bare value in mg/dL.

Could you share which PL value was measured for CCCCc1oc2ccccc2c1C(=O)c1cc(I)c(OCCN(CC)CC)c(I)c1 ? 158.4

And then OCCOCCN1CCN(C(c2ccccc2)c2ccc(Cl)cc2)CC1 (stereo unspecified) [HYDROXYZINE] , what is it? 166.6

Next record, please: CCc1oc2ccccc2c1C(=O)c1cc(Br)c(O)c(Br)c1 157.8

Next molecule: CN(C)C(=N)N=C(N)N 145.2

What about CC[C@H]1[C@@H]2C[C@H]3[C@@H]4N(C)c5ccccc5[C@]45C[C@@H]([C@@H]2[C@H]5O)N3[C@@H]1O ? 154

Input CC(C)N(CCC(C(N)=O)(c1ccccc1)c1ccccn1)C(C)C (stereo unspecified) [DISOPYRAMIDE] 158.6

Now give it for ClC(Cl)(Cl)Cl [CARBON TETRACHLORIDE] too. 165.4

Please answer likewise for CN(C)CCC=C1c2ccccc2COc2ccccc21 [DOXEPIN] 154

Continue with O=NN(CCCl)C(=O)NC1CCCCC1 168.2

For CCC1(c2ccccc2)C(=O)NC(=O)NC1=O then? 158.2

// repeat for CC1=C(CC(=O)O)c2cc(F)ccc2/C1=C\c1ccc([S+](C)[O-])cc1 (stereo unspecified) and report 177

====

species: Rattus norvegicus; experiment: Open TG-GATES - Regimen: Daily Repeat; format: toxicity, organism-based, Sprague-Dawley; design: regimen Daily Repeat, gender Male, age 6 weeks; details: in vivo, po, 0 mg/kg, […], tissue Plasma, route gavage, dose level Control, time 28 day
Provide the reported TBIL of each item.
I only need the number, in mg/dL, no unit after it.

State the recorded TBIL for this entry: CC1=C(CC(=O)O)c2cc(F)ccc2/C1=C\c1ccc([S+](C)[O-])cc1 (stereo unspecified) 0.074

What do you have for CCc1oc2ccccc2c1C(=O)c1cc(Br)c(O)c(Br)c1 ? 0.3

# repeat for CN(C)CCC=C1c2ccccc2COc2ccccc21 [DOXEPIN] 0.034

Cool, now CCC1(c2ccccc2)C(=O)NC(=O)NC1=O 0.3

What do we get for OCCOCCN1CCN(C(c2ccccc2)c2ccc(Cl)cc2)CC1 (stereo unspecified) [HYDROXYZINE] ? 0.052

Then ClC(Cl)(Cl)Cl [CARBON TETRACHLORIDE] ? 0.1

Please give the result for CC(C)N(CCC(C(N)=O)(c1ccccc1)c1ccccn1)C(C)C (stereo unspecified) [DISOPYRAMIDE] too. 0.006

Follow-up entry: CCCCc1oc2ccccc2c1C(=O)c1cc(I)c(OCCN(CC)CC)c(I)c1 0.2

# repeat for CN(C)C(=N)N=C(N)N 0.036

What about CC[C@H]1[C@@H]2C[C@H]3[C@@H]4N(C)c5ccccc5[C@]45C[C@@H]([C@@H]2[C@H]5O)N3[C@@H]1O ? 0.3

Try the compound O=NN(CCCl)C(=O)NC1CCCCC1 0.3

====

species on record: Rattus norvegicus; test: Open TG-GATES - Regimen: Daily Repeat; type: toxicity, organism-based, Sprague-Dawley; parameters: regimen Daily Repeat, gender Male, age 6 weeks; settings: in vivo, po, 0 mg/kg, […], tissue Plasma, route gavage, dose level Control, time 28 day
For each record, write down the corresponding TG.
# value in mg/dL; strip the unit string

Which measured TG value corresponds to CC[C@H]1[C@@H]2C[C@H]3[C@@H]4N(C)c5ccccc5[C@]45C[C@@H]([C@@H]2[C@H]5O)N3[C@@H]1O [AJMALINE] ? 136.4

What about ClC(Cl)(Cl)Cl [CARBON TETRACHLORIDE] ? 83

How about CCc1oc2ccccc2c1C(=O)c1cc(Br)c(O)c(Br)c1 [BENZBROMARONE] ? 146.8

Moving on to CCCCc1oc2ccccc2c1C(=O)c1cc(I)c(OCCN(CC)CC)c(I)c1 [AMIODARONE] 152.4

Also, OCCOCCN1CCN(C(c2ccccc2)c2ccc(Cl)cc2)CC1 (stereo unspecified) [HYDROXYZINE] please. 161.2

And O=NN(CCCl)C(=O)NC1CCCCC1 [LOMUSTINE] ? 122.2

Same read-out for CCC1(c2ccccc2)C(=O)NC(=O)NC1=O [PHENOBARBITAL] ? 213.2

Next entry: CC1=C(CC(=O)O)c2cc(F)ccc2/C1=C\c1ccc([S+](C)[O-])cc1 (stereo unspecified) 125.6

Same for CC(C)N(CCC(C(N)=O)(c1ccccc1)c1ccccn1)C(C)C (stereo unspecified) [DISOPYRAMIDE] 181.6

Same read-out for CN(C)CCC=C1c2ccccc2COc2ccccc21 [DOXEPIN] ? 212.2

Here is the next molecule: CN(C)C(=N)N=C(N)N [METFORMIN] 134.2

====

species on record: Rattus norvegicus; assay: Open TG-GATES - Regimen: Daily Repeat; type: toxicity, organism-based, Sprague-Dawley; set-up: regimen Daily Repeat, gender Male, age 6 weeks; conditions: in vivo, po, 0 mg/kg, 72 h, tissue Kidney, route gavage, dose level Control, time 3 day
Please go through the items and note down their KIDNEY_L.
Reply with the number, then its unit.

# input compound: CCC1(c2ccccc2)C(=O)NC(=O)NC1=O [PHENOBARBITAL] ; wanted: its KIDNEY_L 0.9 g

What do you have for ClC(Cl)(Cl)Cl [CARBON TETRACHLORIDE] ? 0.9 g

Next: CCc1oc2ccccc2c1C(=O)c1cc(Br)c(O)c(Br)c1 [BENZBROMARONE] 1 g

Another compound to look at: CN(C)C(=N)N=C(N)N [METFORMIN] 1 g

Same question, CC(C)N(CCC(C(N)=O)(c1ccccc1)c1ccccn1)C(C)C (stereo unspecified) [DISOPYRAMIDE] this time 1 g

Try this compound next: CC1=C(CC(=O)O)c2cc(F)ccc2/C1=C\c1ccc([S+](C)[O-])cc1 (stereo unspecified) 1 g

Check OCCOCCN1CCN(C(c2ccccc2)c2ccc(Cl)cc2)CC1 (stereo unspecified) [HYDROXYZINE] too. 1 g

Record: CC[C@H]1[C@@H]2C[C@H]3[C@@H]4N(C)c5ccccc5[C@]45C[C@@H]([C@@H]2[C@H]5O)N3[C@@H]1O [AJMALINE] 0.9 g

Then what about the compound CCCCc1oc2ccccc2c1C(=O)c1cc(I)c(OCCN(CC)CC)c(I)c1 [AMIODARONE] ? 1 g

And for O=NN(CCCl)C(=O)NC1CCCCC1 [LOMUSTINE] ? 1 g

Query CN(C)CCC=C1c2ccccc2COc2ccccc21 [DOXEPIN] next 1 g

====

organism: Rattus norvegicus; assay: Open TG-GATES - Regimen: Single; format: toxicity, organism-based, Sprague-Dawley; design: regimen Single, gender Male, age 6 weeks; details: in vivo, po, 0 mg/kg, 3 h, tissue Blood, route gavage, dose level Control
Lab note: compare WBC with 90 x10_2/uL, writing Satisfied if less and Not satisfied if equal or more.

Please let me know if O=NN(CCCl)C(=O)NC1CCCCC1 shows WBC below 90 x10_2/uL. Not satisfied

Same question, CC1=C(CC(=O)O)c2cc(F)ccc2/C1=C\c1ccc([S+](C)[O-])cc1 (stereo not given) this time Satisfied

What do you get for OCCOCCN1CCN(C(c2ccccc2)c2ccc(Cl)cc2)CC1 (stereo not given) [HYDROXYZINE] ? Satisfied

Can you check CN(C)CCC=C1c2ccccc2COc2ccccc21 [DOXEPIN] next? Not satisfied

Do the same for CN(C)C(=N)N=C(N)N please Not satisfied

Try the molecule ClC(Cl)(Cl)Cl [CARBON TETRACHLORIDE] Not satisfied

Next molecule up: CC(C)N(CCC(C(N)=O)(c1ccccc1)c1ccccn1)C(C)C (stereo not given) [DISOPYRAMIDE] Satisfied

Record: CCc1oc2ccccc2c1C(=O)c1cc(Br)c(O)c(Br)c1 Not satisfied

Would you kindly repeat that for CCC1(c2ccccc2)C(=O)NC(=O)NC1=O ? Not satisfied

Quick one: CC[C@H]1[C@@H]2C[C@H]3[C@@H]4N(C)c5ccccc5[C@]45C[C@@H]([C@@H]2[C@H]5O)N3[C@@H]1O Not satisfied
